- SUBJECT_OF_TEST: T1, HIS-tagged human NKG2D (human, UniProt P26718 73-216, limits assumed)
- T1 construct: Captured on HIS1K biosensors; not shown: HIS tag
- T1 sequence (looked up): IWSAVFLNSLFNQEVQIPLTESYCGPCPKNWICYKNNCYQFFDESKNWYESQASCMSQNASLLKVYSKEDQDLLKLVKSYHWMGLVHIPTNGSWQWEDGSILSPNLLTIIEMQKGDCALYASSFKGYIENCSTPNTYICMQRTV
- TEST_NAME: Octet (BLI): His-tagged human NKG2D captured on HIS1K biosensors, dipped into 100 nM bivalent mAb
Please assign rule not met whenever Kd is at or above 0.5 nM, and rule met whenever it is below.

Worked cases, answers included:
# BINDER, CLASS
measured = [
    ("XENP27592 (antibody, human IgG1, kappa, V domains shown, bivalent anti-NKG2D mAb, IgG1 with ablation variants; also called 6E5A7[NKG2D]_H0L0_IgG1_PVA_/S267K) VH: QVQLQQSGPGLVQPSQSLSITCTVSGFSLTIYGVHWVRQSPGKGLEWLGVIWSGGSTDYNAAFISRLSISKDNSKRQVFFKMSSLQANDTAIYYCSRKSHDGYYGVMDYWGQGTTVTVSS VL: DIQLTQSPAILSVSPGERVSFSCRASQSIGTSIHWYQQRTNGSPRLLIKYASESISGIPSRFSGSGSGTDFTLSINGVESEDIADYYCQQSNTWPLTFGAGTKLEIKR", "rule met"),
    ("XENP27605 (antibody, human IgG1, kappa, V domains shown, humanized bivalent anti-NKG2D mAb, IgG1 with ablation variants; also called mAb B[NKG2D]_H3_L1.1_IgG1_PVA_/S267K) VH: EVQLVESGGGLVQPGGSLRLSCAASGYTFTSYWMNWVRQAPGKGLVWVSRIDPYDSETHYNQKVKGRFTISVDKAKSTAYLQMNSLRAEDTAVYYCAKMGDYSFDYWGQGTLVTVSS VL: DIQLTQSPSSLSASVGDRVTITCRASGNIHNYLAWYQQKPGKSPKVLVYNAKTLADGVPSRFSGSGSGTDYTLTISSLQPEDFATYYCQHFWSTPWTFGGGTKVEIKR", "rule not met"),
    ("XENP27614 (antibody, human IgG1, kappa, V domains shown, humanized bivalent anti-NKG2D mAb, IgG1 with ablation variants; also called mAb A[NKG2D]_H2L2_IgG1_PVA_/S267K) VH: QVQLQESGPGLVKPSETLSLTCTVSGFSLTSYGVHWIRQPPGKGLEWIGVIWAGGSTNYNPSLKSRVTISKDNSKSQVSLKLSSVTAADTAVYYCARGGYEGAAWFGYWGQGTLVTVSS VL: DIQLTQSPATLSLSPGERATLSCRASSSVSYMHWYQQKPGQSPRPLIYATSNLASGVPARFSGSGSGTDYTLTISSLEPEDFAVYYCQQWNSNPLTFGAGTKVEIKR", "rule met"),
    ("XENP27612 (antibody, human IgG1, kappa, V domains shown, humanized bivalent anti-NKG2D mAb, IgG1 with ablation variants; also called mAb A[NKG2D]_H1L2_IgG1_PVA_/S267K) VH: QVQLVQSGAEVKKPGASVKVSCKVSGFSLTSYGVHWIRQAPGQGLEWMGVIWAGGSTNYNSKFQGRVTMTKDNSKSTVYMELSSLRSEDTAVYYCARGGYEGAAWFGYWGQGTLVTVSS VL: DIQLTQSPATLSLSPGERATLSCRASSSVSYMHWYQQKPGQSPRPLIYATSNLASGVPARFSGSGSGTDYTLTISSLEPEDFAVYYCQQWNSNPLTFGAGTKVEIKR", "rule met"),
    ("XENP27598 (antibody, human IgG1, kappa, V domains shown, humanized bivalent anti-NKG2D mAb, IgG1 with ablation variants; also called mAb B[NKG2D]_H1L1_IgG1_PVA_/S267K) VH: QVQLVQSGAEVKKPGASVKVSCKASGYTFTSYWMNWVRQAPGQGLEWMGRIDPYDSETHYNQKFQGRVTMTVDKSTSTAYMELSSLRSEDTAVYYCAKMGDYSFDYWGQGTLVTVSS VL: DIQLTQSPSSLSASVGDRVTITCRASGNIHNYLAWYQQKPGKSPKVLVYNAKTLADGVPSRFSGSGSGTDYTLTISSLQPEDFATYYCQHFWSTTWTFGGGTKVEIKR", "rule not met"),
    ("XENP27596 (antibody, human IgG1, kappa, V domains shown, bivalent anti-NKG2D mAb, IgG1 with ablation variants; also called mAb D[NKG2D]_H1L1_IgG1_PVA_/S267K) VH: QVQLVQSGAEVKKPGASVKVSCKASGYTFTNYWMHWVRQAPGQGLEWMGEIDPSDIYTNYAQKFQGRVTMTRDTSTSTVYMELSSLRSEDTAVYYCARGIYDGYYVYGMDYWGQGTTVTVSS VL: YIQMTQSPSSLSASVGDRVTITCRSSQDISNYLNWYQQKPGKAPKLLIYYTSRLHSGVPSRFSGSGSGTDFTFTISSLQPEDIATYYCQQGKTLPRTFGGGTKVEIKR", "rule met"),
]

Query: Take the binder XENP27593 (antibody, human IgG1, kappa, V domains shown, bivalent anti-NKG2D mAb, IgG1 with ablation variants; also called 6H7E7[NKG2D]_H0L0_IgG1_PVA_/S267K) VH: QVQLQESGPGLVAPSQSLSITCTVSGFSLTSYGVHWIRQPPGKGLEWLGVIWAGGSTNYNSALMSRLSISKDNSKSQVFLKMNSLQIDDTAMYYCARGGYEGAAWFGYWGQGTTVTVSS VL: DIQLTQSPAILSASPGEKVTMTCRASSSVSYMHWYQQKPGSSPKPWIYATSNLASGVPARFSGSGSGTSYSLTISRVEAEDAATYYCQQWNSNPLTFGAGTKLEIKR and say whether its Kd is less than 0.5 nM.
Result: rule met

Query: Take the binder XENP27610 (antibody, human IgG1, kappa, V domains shown, humanized bivalent anti-NKG2D mAb, IgG1 with ablation variants; also called mAb C[NKG2D]_H2L2_IgG1_PVA_/S267K) VH: QVQLVQSGAEVKKPGASVKVSCKVSGFSLTIYGVHWVRQAPGQGLEWMGVIWSGGSTDYNAKFQGRVTMTKDNSKRTVYMELSSLRSEDTAVYYCSRKSHDGYYGVMDYWGQGTTVTVSS VL: DIQLTQSPSSLSASVGDRVTITCRASQSIGTSIHWYQQKPGKSPKLLIKYASESISGIPSRFSGSGSGTDFTLTISSLQPEDFATYYCQQSNTWPLTFGAGTKVEIKR and say whether its Kd is less than 0.5 nM.
Result: rule met

Query: Take the binder XENP27597 (antibody, human IgG1, lambda, V domains shown, bivalent anti-NKG2D mAb, IgG1 with ablation variants; also called KYK-1.0[NKG2D]_H1L1_IgG1_PVA_/S267K) VH: EVQLVESGGGVVQPGGSLRLSCAASGFTFSSYGMHWVRQAPGKGLEWVAFIRYDGSNKYYADSVKGRFTISRDNSKNTKYLQMNSLRAEDTAVYYCAKDRFGYYLDYWGQGTLVTVSS VL: QPVLTQPSSVSVAPGETARIPCGGDDIETKSVHWYQQKPGQAPVLVIYDDDDRPSGIPERFFGSNSGNTATLSISRVEAGDEADYYCQVWDDNNDEWVFGGGTQLTVLG and say whether its Kd is less than 0.5 nM.
Result: rule not met
